system: Staphylococcus aureus; test: Antibacterial activity against Staphylococcus aureus MTCC 96 assessed as growth inhibition after 24 hrs by broth microdilution method; format: functional; settings: MTCC 96, 24 h
Could you please report measured MIC for the items listed next?
Report only the number, with the unit µg/mL understood.

Using known records, supply MIC for C/C(=N\NC(=O)CC#N)c1cc2c(ccc3ccccc32)oc1=O
125

Using known records, supply MIC for C/C(=N\n1c(N)c(C#N)c(-c2ccc(F)cc2)c(C#N)c1=O)c1cc2c(ccc3ccccc32)oc1=O
125

Using known records, supply MIC for C/C(=N\NC(=O)/C(C#N)=C/c1ccc(F)cc1)c1cc2c(ccc3ccccc32)oc1=O
125
